target: UniProt:P48736; assay: PI3K-gamma fluorescence polarization assay; details: read-out: IC50 PI3Kγ
Sequence (P48736 whole entry, species assumed): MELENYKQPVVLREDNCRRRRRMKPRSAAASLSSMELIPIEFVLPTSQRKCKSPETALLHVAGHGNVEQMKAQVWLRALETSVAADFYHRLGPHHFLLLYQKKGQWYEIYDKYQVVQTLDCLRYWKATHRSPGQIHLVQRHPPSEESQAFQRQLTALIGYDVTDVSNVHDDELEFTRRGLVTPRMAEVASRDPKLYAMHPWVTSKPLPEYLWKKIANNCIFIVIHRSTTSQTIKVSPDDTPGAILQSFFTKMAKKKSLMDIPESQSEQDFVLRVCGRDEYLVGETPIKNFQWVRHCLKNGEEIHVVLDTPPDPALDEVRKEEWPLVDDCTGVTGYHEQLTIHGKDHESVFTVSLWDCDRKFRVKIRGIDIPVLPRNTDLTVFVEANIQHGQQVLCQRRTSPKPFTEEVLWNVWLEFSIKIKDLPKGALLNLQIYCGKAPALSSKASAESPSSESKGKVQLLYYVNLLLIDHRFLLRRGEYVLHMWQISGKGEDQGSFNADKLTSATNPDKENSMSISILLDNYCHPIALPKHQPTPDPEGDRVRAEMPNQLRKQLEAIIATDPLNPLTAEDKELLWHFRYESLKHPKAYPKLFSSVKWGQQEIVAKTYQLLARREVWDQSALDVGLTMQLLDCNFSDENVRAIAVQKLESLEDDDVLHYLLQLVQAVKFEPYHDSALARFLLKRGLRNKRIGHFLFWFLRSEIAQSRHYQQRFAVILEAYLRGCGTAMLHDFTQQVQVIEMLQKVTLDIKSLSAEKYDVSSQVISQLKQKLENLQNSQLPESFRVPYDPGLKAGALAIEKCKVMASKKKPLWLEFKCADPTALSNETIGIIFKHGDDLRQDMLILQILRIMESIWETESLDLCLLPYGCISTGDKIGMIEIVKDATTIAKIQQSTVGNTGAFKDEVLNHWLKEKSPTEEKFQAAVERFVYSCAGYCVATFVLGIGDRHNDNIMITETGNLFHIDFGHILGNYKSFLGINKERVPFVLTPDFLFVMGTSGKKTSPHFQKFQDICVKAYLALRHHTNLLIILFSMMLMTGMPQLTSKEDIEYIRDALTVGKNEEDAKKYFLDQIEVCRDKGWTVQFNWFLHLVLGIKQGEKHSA
Consider the following molecules; for each one, report its pIC50.
Here pIC50 is given on a logarithmic scale as minus log10 of the concentration in mol/L.

**Q:** What value of pIC50 has been recorded for this entry: O=C(Nc1ccc(C(=O)N2CCC(N3CCCCC3)CC2)cc1)Nc1ccc(-c2nc(N3CCOCC3)nc(N3CCOCC3)n2)cc1
**A:** 8.00

**Q:** What value of pIC50 has been recorded for this entry: O=C(Nc1ccc(CO)cc1)Nc1ccc(-c2nc(N3C4CCC3COC4)nc(N3C4CCC3COC4)n2)cc1
**A:** 5.48

**Q:** What value of pIC50 has been recorded for this entry: CC(C)c1nc(-c2ccc(NC(=O)Nc3ccc(C(=O)Nc4ccncc4)cc3)cc2)nc(N2CCOCC2)n1
**A:** 7.02

**Q:** What value of pIC50 has been recorded for this entry: CCc1nc(-c2ccc(NC(=O)Nc3cccc(C(=O)N(C)CCN(C)C)c3)cc2)nc(N2CCOCC2)n1
**A:** 5.65
